molecular target: human P2X3 receptor (homomeric P2X3 channels) (Homo sapiens, UniProt P56373); construct: expressed in transfected cells; host or cells: HEK293 human embryonic kidney cells (HEK-hP2X3); experiment: FlexStation calcium fluorescence assay, homomeric P2X3 channels (HEK-hP2X3 cells); format: cell-based; conditions: potency ratio P2X3 over P2X2/3 from pIC50s
Sequence (P56373 whole entry): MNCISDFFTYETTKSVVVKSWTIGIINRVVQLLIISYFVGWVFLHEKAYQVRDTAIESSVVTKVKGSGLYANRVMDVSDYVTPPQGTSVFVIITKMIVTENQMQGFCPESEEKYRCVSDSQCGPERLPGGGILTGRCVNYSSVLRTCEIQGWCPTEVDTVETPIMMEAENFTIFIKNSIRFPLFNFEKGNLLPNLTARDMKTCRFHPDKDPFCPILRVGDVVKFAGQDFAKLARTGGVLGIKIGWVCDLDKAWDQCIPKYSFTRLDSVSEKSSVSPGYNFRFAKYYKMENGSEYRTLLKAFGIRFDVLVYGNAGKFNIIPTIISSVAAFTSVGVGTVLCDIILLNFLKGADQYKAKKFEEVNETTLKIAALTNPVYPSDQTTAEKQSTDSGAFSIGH
observedProperty: Selectivity P2X3/P2X2/3

Check out these entries, answers already filled in.
molecule="C#Cc1cc(Sc2cnc(N)nc2N)c(C(C)C)nc1OC [Compound 29]" observedproperty="Selectivity P2X3/P2X2/3" recordedresult=3.9
molecule="COc1cc(C(C)C)c(Sc2cnc(N)nc2N)cc1I [Compound 4]" observedproperty="Selectivity P2X3/P2X2/3" recordedresult=48

I = COc1nc(C(C)C)c(Nc2cnc(N)nc2N)cc1Cl [Compound 32]
II = CC#Cc1cc(Sc2cnc(N)nc2N)c(C(C)C)nc1OC [Compound 28]
III = COc1cc(C(C)C)c(Nc2cnc(N)nc2N)cc1Cl [Compound 39]
Inquiry: Please list the entries, largest Selectivity P2X3/P2X2/3 first. Record the ranking as a list of labels in the requested order.
Reply text: III, I, II
(III: 208, I: 34, II: 7.2)

###

biological target: human P2X3 receptor (homomeric P2X3 channels) (Homo sapiens, UniProt P56373); construct: expressed in transfected cells; host or cells: HEK293 human embryonic kidney cells (HEK-hP2X3); test: FlexStation calcium fluorescence assay, homomeric P2X3 channels (HEK-hP2X3 cells); assay type: cell-based; conditions: potency ratio P2X3 over P2X2/3 from pIC50s
observedProperty: Selectivity P2X3/P2X2/3

Check out these entries, answers already filled in.
entrysmiles=COc1cc(Oc2cnc(N)nc2N)c(C(C)C)nc1OC observedproperty="Selectivity P2X3/P2X2/3" recordedresult=5.2
entrysmiles=C#Cc1cc(Oc2cnc(N)nc2N)c(C(C)C)nc1OC observedproperty="Selectivity P2X3/P2X2/3" recordedresult=28
entrysmiles=COc1cc(Nc2cnc(N)nc2N)c(C(C)C)cc1OC observedproperty="Selectivity P2X3/P2X2/3" recordedresult=28

P = COc1nc(C(C)C)c(Oc2cnc(N)nc2N)cc1C(F)(F)F
Q = COc1nc(C(C)C)c(Nc2cnc(N)nc2N)cc1C(F)(F)F
Inquiry: Which record shows the lower Selectivity P2X3/P2X2/3: the first, P , or the second, Q ? Answer by stating the label of the chosen item.
Reply text: P

###

target: human P2X3 receptor (homomeric P2X3 channels) (Homo sapiens); construct: expressed in transfected cells; host or cells: HEK293 human embryonic kidney cells (HEK-hP2X3); experiment: FlexStation calcium fluorescence assay, homomeric P2X3 channels (HEK-hP2X3 cells); type: cell-based; settings: potency ratio P2X3 over P2X2/3 from pIC50s
observedProperty: Selectivity P2X3/P2X2/3

Check out these entries, answers already filled in.
entrysmiles=COc1nc(C(C)C)c(Oc2cnc(N)nc2N)nc1C(F)(F)F assaysystem="human P2X3 receptor (homomeric P2X3 channels) (Homo sapiens)" observedproperty="Selectivity P2X3/P2X2/3" recordedresult=10
entrysmiles=COc1cc(Nc2cnc(N)nc2N)c(C(C)C)nc1OC assaysystem="human P2X3 receptor (homomeric P2X3 channels) (Homo sapiens)" observedproperty="Selectivity P2X3/P2X2/3" recordedresult=225

A = COc1nc(C(C)C)c(Oc2cnc(N)nc2N)cc1SC
B = COc1nc(C(C)C)c(Sc2cnc(N)nc2N)cc1S(N)(=O)=O
Inquiry: Which record shows the lower Selectivity P2X3/P2X2/3: the first, A , or the second, B ? Answer by stating the label of the chosen item.
Reply text: B
(B: 7.3, A: 41)

Values were extracted from patent US11230532B2.
